# Tested on: LNCaP tumor-bearing male CB-17 SCID mice
# Experimental details: Biodistribution 1 h p.i.
# Format: in vivo
Parameter measured: Biodistribution Stomach

INSERT INTO measurements (compound, observed_result) VALUES
  ('CC(C)(C)[Si]([18F])(c1ccc(C(=O)NC[C@@H](NC(=O)CC[C@@H](C(=O)O)N2CCN(CC(=O)[O-])CCN(CC(=O)[O-])CCN(CC(=O)[O-])CC2)C(=O)N[C@H](CCCCNC(=O)CCC(=O)NCCC[C@@H](NC(=O)CC[C@H](NC(=O)N[C@@H](CCC(=O)O)C(=O)O)C(=O)O)C(=O)O)C(=O)O)cc1)C(C)(C)C.[Ga+3] [[^18F, ^natGa]rhPSMA-7.3]', '0.44 ± 0.23 % ID/g');

* * *

Quick list: Biodistribution Adrenals per entry.
# Tested on: LNCaP tumor-bearing male CB-17 SCID mice
# Experimental details: Biodistribution 1 h p.i.
# Format: in vivo
Parameter measured: Biodistribution Adrenals (% ID/g)

INSERT INTO assay_data (compound, tested_system, parameter_measured, unit_text, observed_result) VALUES
  ('CC(C)(C)[Si]([18F])(c1ccc(C(=O)NC[C@@H](NC(=O)CC[C@@H](C(=O)O)N2CCN(CC(=O)[O-])CCN(CC(=O)[O-])CCN(CC(=O)[O-])CC2)C(=O)N[C@H](CCCCNC(=O)CCC(=O)NCCC[C@@H](NC(=O)CC[C@H](NC(=O)N[C@@H](CCC(=O)O)C(=O)O)C(=O)O)C(=O)O)C(=O)O)cc1)C(C)(C)C.[Ga+3] [[^18F, ^natGa]rhPSMA-7.3]', 'LNCaP tumor-bearing male CB-17 SCID mice', 'Biodistribution Adrenals', '% ID/g', 2.2),
  ('CC(C)(C)[Si]([18F])(c1ccc(C(=O)NC[C@@H](NC(=O)CC[C@H](C(=O)O)N2CCN(CC(=O)[O-])CCN(CC(=O)[O-])CCN(CC(=O)[O-])CC2)C(=O)N[C@H](CCCCNC(=O)CCC(=O)NCCC[C@@H](NC(=O)CC[C@H](NC(=O)N[C@@H](CCC(=O)O)C(=O)O)C(=O)O)C(=O)O)C(=O)O)cc1)C(C)(C)C.[Ga+3] [[^18F, ^natGa]rhPSMA-7.1]', 'LNCaP tumor-bearing male CB-17 SCID mice', 'Biodistribution Adrenals', '% ID/g', 2.0),
  ('CC(C)(C)[Si]([18F])(c1ccc(C(=O)NC[C@H](NC(=O)CC[C@@H](C(=O)O)N2CCN(CC(=O)[O-])CCN(CC(=O)[O-])CCN(CC(=O)[O-])CC2)C(=O)N[C@H](CCCCNC(=O)CCC(=O)NCCC[C@@H](NC(=O)CC[C@H](NC(=O)N[C@@H](CCC(=O)O)C(=O)O)C(=O)O)C(=O)O)C(=O)O)cc1)C(C)(C)C.[Ga+3] [[^18F, ^natGa]rhPSMA-7.4]', 'LNCaP tumor-bearing male CB-17 SCID mice', 'Biodistribution Adrenals', '% ID/g', 3.57),
  ('CC(C)(C)[Si]([18F])(c1ccc(C(=O)NC[C@H](NC(=O)CC[C@H](C(=O)O)N2CCN(CC(=O)[O-])CCN(CC(=O)[O-])CCN(CC(=O)[O-])CC2)C(=O)N[C@H](CCCCNC(=O)CCC(=O)NCCC[C@@H](NC(=O)CC[C@H](NC(=O)N[C@@H](CCC(=O)O)C(=O)O)C(=O)O)C(=O)O)C(=O)O)cc1)C(C)(C)C.[Ga+3] [[^18F, ^natGa]rhPSMA-7.2]', 'LNCaP tumor-bearing male CB-17 SCID mice', 'Biodistribution Adrenals', '% ID/g', 1.3);
